// values below are IC50; system is HPK1 (Homo sapiens (Human))
Sequence (Q92918 1-346 limits assumed): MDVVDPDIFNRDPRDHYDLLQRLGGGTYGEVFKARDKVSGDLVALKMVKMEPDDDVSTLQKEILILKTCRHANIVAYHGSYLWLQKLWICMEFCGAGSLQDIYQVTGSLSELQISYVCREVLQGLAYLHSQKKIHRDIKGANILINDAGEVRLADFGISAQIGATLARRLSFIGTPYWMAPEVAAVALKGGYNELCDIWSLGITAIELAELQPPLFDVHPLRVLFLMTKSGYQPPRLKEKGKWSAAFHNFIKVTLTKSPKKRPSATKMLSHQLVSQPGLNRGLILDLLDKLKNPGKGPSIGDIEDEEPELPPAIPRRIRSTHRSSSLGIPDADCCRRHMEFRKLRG

# annotated cases, reported IC50 shown
- smiles record: "Cc1nn(C(C)C)c2c(F)cc(NC(=O)c3ccc(=O)n(-c4c(F)cccc4F)n3)c(N3C[C@@H](C)[C@@H](N)C3)c12"
  target or test system: "HPK1 (Homo sapiens (Human))"
  IC50: "< 100 nM"
- smiles record: "Cn1c(C(C)(C)C)nc2c(N3CC[C@@H](O)C3)c(NC(=O)c3ccc(=O)n(-c4c(F)cccc4F)n3)ccc21"
  target or test system: "HPK1 (Homo sapiens (Human))"
  IC50: "< 100 nM"

Let's switch to this compound now.
Please give the measured IC50 for this compound: `CC(C)n1ncc2c(N3C[C@@H](N)C(C)(C)C3)c(NC(=O)c3ccc(=O)n(-c4c(F)cccc4F)n3)ccc21`
< 100 nM
